Assay: Pharmacokinetic evaluation in C57BL/6 mice after intravenous and oral administration
Format: in vivo
Details: male, mouse, plasma, IV 1 mg/kg, read-out: half-life T1/2 (IV, h) (converted)
Record form. Attribute: log10 of half-life. Fill in for each entry.
A value of 2 here means half-life of 100 in h, since values are log10.

Observe how each entry below is paired with its result.
- COMPOUND: "N#Cc1ccc(-c2nc(C3(CN[C@H]4CC4c4ccccc4)CC3)no2)cc1 (some centres unmarked)"
  log10 of half-life: 0.11
- COMPOUND: "N[C@H]1CC[C@H](c2nc(C3(CN[C@@H]4C[C@H]4c4ccccc4)CC3)no2)CC1"
  log10 of half-life: 0.65
- COMPOUND: "N[C@H]1CC[C@@H](c2nc(C3(CN[C@@H]4C[C@H]4c4ccccc4)CC3)no2)CC1"
  log10 of half-life: 1.07
- COMPOUND: "O=C(O)c1ccc(CN2CCC(c3nc(C4(CN[C@@H]5CC5c5ccccc5)CC4)no3)CC2)cc1 (some centres unmarked)"
  log10 of half-life: 0.00
- COMPOUND: "O=C(O)C12CCC(c3nc(C4(CN[C@H]5CC5c5ccccc5)CC4)no3)(CC1)CC2 (some centres unmarked)"
  log10 of half-life: 0.20
- COMPOUND: "FC(F)(F)c1ccc(-c2nc(C3(CN[C@H]4CC4c4ccccc4)CC3)no2)cn1 (some centres unmarked)"
  log10 of half-life: 0.18

Kindly give each listed record's log10 of half-life.
1. O=C(O)C1(CN2CCC(c3nc(C4(CN[C@@H]5C[C@H]5c5ccccc5)CC4)no3)CC2)CCC1
2. N[C@H]1CC[C@H](c2cc(C3(CN[C@@H]4C[C@H]4c4ccccc4)CC3)no2)CC1

result:
1. -0.47
2. 0.38
